Entries annotated with measured pIC50
Target: UniProtKB P25929
Sequence (P25929 whole entry): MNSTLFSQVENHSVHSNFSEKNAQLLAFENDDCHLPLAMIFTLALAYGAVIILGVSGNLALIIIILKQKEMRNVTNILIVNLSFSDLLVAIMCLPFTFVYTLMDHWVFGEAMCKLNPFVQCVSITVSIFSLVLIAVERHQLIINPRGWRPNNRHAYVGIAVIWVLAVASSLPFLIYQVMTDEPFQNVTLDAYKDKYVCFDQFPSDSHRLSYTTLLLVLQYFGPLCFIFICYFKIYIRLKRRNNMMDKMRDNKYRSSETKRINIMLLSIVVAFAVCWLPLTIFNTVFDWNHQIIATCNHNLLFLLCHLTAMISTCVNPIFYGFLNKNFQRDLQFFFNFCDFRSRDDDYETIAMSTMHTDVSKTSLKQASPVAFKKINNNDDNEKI
Test: Antagonist activity at Y1 receptor in human HEL cells assessed as reduction in pNPY-induced calcium mobilization preincubated for 15 mins followed by pNPY stimulation and measured immediately by Fura-2 dye based fluorescence assay
Just the number, please; pIC50 means minus log10 of the concentration in mol/L.

Examples with answers:
> print(dat)
                                test.smiles  recorded.number
1  N/C(=N/C(=O)NCCNC(=O)c1ccccc1)NCCC[C@@H](NC(=O)C(c1ccccc1)c1ccccc1)C(=O)NCc1ccc(O)cc1             7.94
2  N/C(=N/C(=O)NCCNC(=O)C1CCC1)NCCC[C@@H](NC(=O)C(c1ccccc1)c1ccccc1)C(=O)NCc1ccc(O)cc1             9.62
3  N/C(=N/C(=O)NCCNC(=O)C1CCCCC1)NCCC[C@@H](NC(=O)C(c1ccccc1)c1ccccc1)C(=O)NCc1ccc(O)cc1             7.51

For this molecule ( N/C(=N/C(=O)NCCNC(=O)CBr)NCCC[C@@H](NC(=O)C(c1ccccc1)c1ccccc1)C(=O)NCc1ccc(O)cc1 ), measured pIC50 is 10.21

For this molecule ( N/C(=N/C(=O)NCCNC(=O)C(c1ccccc1)c1ccccc1)NCCC[C@@H](NC(=O)C(c1ccccc1)c1ccccc1)C(=O)NCc1ccc(O)cc1 ), measured pIC50 is 6.28

For this molecule ( N/C(=N/C(=O)NCCNC(=O)C(F)(F)F)NCCC[C@@H](NC(=O)C(c1ccccc1)c1ccccc1)C(=O)NCc1ccc(O)cc1 ), measured pIC50 is 9.90

For this molecule ( N/C(=N/C(=O)NCCNC(=O)CF)NCCC[C@@H](NC(=O)C(c1ccccc1)c1ccccc1)C(=O)NCc1ccc(O)cc1 ), measured pIC50 is 10.26

For this molecule ( N/C(=N/C(=O)NCCNC(=O)CCl)NCCC[C@@H](NC(=O)C(c1ccccc1)c1ccccc1)C(=O)NCc1ccc(O)cc1 ), measured pIC50 is 10.10

Entry source: ChEMBL document CHEMBL4699401
